- SYSTEM UNDER TEST: CETP (Homo sapiens, UniProt P11597)
- Construct: from tissue; host or cells: human plasma from normal volunteers
- Sequence (P11597 18-493): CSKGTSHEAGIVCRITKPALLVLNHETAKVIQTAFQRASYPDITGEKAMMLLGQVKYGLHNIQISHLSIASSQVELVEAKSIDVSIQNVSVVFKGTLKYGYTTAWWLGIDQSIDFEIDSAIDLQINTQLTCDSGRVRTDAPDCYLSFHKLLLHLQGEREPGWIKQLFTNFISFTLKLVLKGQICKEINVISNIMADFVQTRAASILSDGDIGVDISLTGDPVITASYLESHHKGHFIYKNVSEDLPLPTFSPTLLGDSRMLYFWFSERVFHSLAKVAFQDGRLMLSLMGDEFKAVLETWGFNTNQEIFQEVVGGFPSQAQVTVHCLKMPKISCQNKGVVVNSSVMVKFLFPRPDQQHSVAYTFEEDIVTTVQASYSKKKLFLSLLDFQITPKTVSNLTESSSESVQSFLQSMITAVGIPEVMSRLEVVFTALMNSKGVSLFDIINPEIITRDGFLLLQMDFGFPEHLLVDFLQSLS
- TEST PROTOCOL: CETP in vitro assay ([3H]CE-HDL transfer, Amersham kit TRKQ7005; modified protocol in human plasma)
- Format: biochemical
- STATED CONDITIONS: 1 μM compound; multiple values = multiple measurements
Think of 30% as a floor: if inhibition at 1 µM stands on it or above, it is satisfied; beneath it, not satisfied.

// known answers, use as guide
COMPOUND: OC(CN1c2cccc(-c3cccc(OC(F)(F)F)c3)c2OCC1c1ccc2c(c1)OC(F)(F)O2)C(F)(F)F (stereo not drawn)
GROUP: satisfied
--
COMPOUND: FC(F)C(F)(F)Oc1cccc(C2COc3c(-c4cccc(OC(F)(F)F)c4)cccc3N2CCN2CCOCC2)c1 (stereo not drawn)
GROUP: not satisfied
--
COMPOUND: O[C@@H](CN1c2cccc(-c3cccc(OC(F)(F)F)c3)c2OC[C@H]1c1cccc(OC(F)(F)C(F)F)c1)C(F)(F)F
GROUP: not satisfied

Determine whether measured inhibition at 1 µM meets or exceeds 30% for CC(C)(O)CN1c2cccc(-c3cccc(OC(F)(F)F)c3)c2OCC1c1cccc(OC(F)(F)C(F)F)c1 (stereo not drawn) satisfied

Cited source for all entries: patent US8012963B2
